# procedure text: Stability of the analytes in rat plasma samples (freeze-thaw, short-term, long-term, autosampler)
# Assay type: in vitro ADME
# assay conditions: concentration 1 (µg/mL), room temperature 6 h, n = 3
# Stability (%) Short-term stability listing for each entry below
The response must be a number in % with no trailing unit.

1. COc1ccc(-c2coc3cc(O[C@@H]4O[C@H](CO)[C@@H](O)[C@H](O)[C@H]4O)ccc3c2=O)cc1 : 12

API: the following record is the query input.
Please fill in: Stability (%) Short-term stability reported for CC(=O)O[C@H]1[C@H](O[C@H]2CC[C@]34C[C@]35CC[C@]3(C)[C@@H]([C@@]6(C)CC[C@@H](C(C)(C)O)O6)[C@@H](O)C[C@@]3(C)[C@@H]5C[C@H](O[C@@H]3O[C@H](CO)[C@@H](O)[C@H](O)[C@H]3O)[C@H]4C2(C)C)OC[C@@H](O)[C@@H]1O [Astragaloside II, astragaloside II] = 2.4
